System: Escherichia coli TOP10;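 note: peptides expressed intracellularly from a pBAD plasmid library in pooled LB shake-flask culture, induced with 0.3% L-arabinose, DNA abundance read by NGS, three biological replicates, DESeq2 with apeglm shrinkage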
Test: shrunken log2 fold change of peptide-encoding DNA abundance (4.5 h post-induction vs induction); higher = less antimicrobial activity (less host growth inhibition)
Conditions: time post-induction: 4.5 h; library: site-saturation at positions 5, 18, 19, 20
measureName: shrunken log2 fold change
One number for each entry.

A selection of reference data follows.
{"querySequence": "RRIRWRPPRLPRPRPRPFEFPRP", "shrunken log2 fold change": -0.182}
{"querySequence": "RRIRIRPPRLPRPRPRPSDIPRP", "shrunken log2 fold change": -0.366}
{"querySequence": "RRIRVRPPRLPRPRPRPKGMPRP", "shrunken log2 fold change": 0.109}
{"querySequence": "RRIRTRPPRLPRPRPRPADAPRP", "shrunken log2 fold change": -0.0445}
{"querySequence": "RRIRIRPPRLPRPRPRPNTYPRP", "shrunken log2 fold change": -1.02}
{"querySequence": "RRIRKRPPRLPRPRPRPIHLPRP", "shrunken log2 fold change": -0.0911}
{"querySequence": "RRIRQRPPRLPRPRPRPAHTPRP", "shrunken log2 fold change": 0.379}

RRIRDRPPRLPRPRPRPKFQPRP on Escherichia coli TOP10 gives shrunken log2 fold change = 0.00463

Values from the supplement of paper PMC9112550
